SYSTEM_UNDER_TEST: CFTR-mediated chloride transport (Homo sapiens, UniProt P13569)
ASSAY_DETAILS: Corrector Assay A - membrane potential dye assay (enteroid cells)
CONDITION_PARAMETERS: % of chloride transport of triple combination control (1 μM (14S)-dispiro macrocycle + 3 μM tezacaftor + 300 nM ivacaftor)
ENDPOINT_LABEL: Corrector Assay A % activity

Reference set, count: 4
[[record]]
compound = "CC(C)(C)c1ccc2c(n1)N1C[C@@H](CCC(c3ccc(C4CCNCC4)cn3)Nc3cccc(n3)S(=O)(=O)NC2=O)CC1(C)C (stereo partly drawn) [Compound 154]"
endpoint_label = "Corrector Assay A % activity"
experimental_value = "+++ (+++ is >60%)"

[[record]]
compound = "CN1CCN(c2ccc3c(n2)N2C[C@@H](CC[C@H](c4ccccn4)Nc4cccc(n4)S(=O)(=O)NC3=O)CC2(C)C)C1=O [Compound 333]"
endpoint_label = "Corrector Assay A % activity"
experimental_value = "+++ (+++ is >60%)"

[[record]]
compound = "CC(C)(C)c1ccc([C@@H]2CC[C@@H]3CN(c4nc(C(C)(C)C)ccc4C(=O)NS(=O)(=O)c4cccc(n4)N2)C(C)(C)C3)cc1 (single isomer, unassigned) [Compound 38]"
endpoint_label = "Corrector Assay A % activity"
experimental_value = "+++ (+++ is >60%)"

[[record]]
compound = "C=CCC1CC[C@@H]2CN(c3nc(C(C)(C)C)ccc3C(=O)NS(=O)(=O)c3cccc(n3)N1)C(C)(C)C2 (single isomer, unassigned) [Compound 34]"
endpoint_label = "Corrector Assay A % activity"
experimental_value = "+++ (+++ is >60%)"


With those in mind, consider the next compound.
Query: Item under review: COC(=O)C1CC[C@@H]2CN(c3nc(C(C)(C)C)ccc3C(=O)NS(=O)(=O)c3cccc(n3)N1)C(C)(C)C2 (single isomer, unassigned) [Compound 224] . Reported Corrector Assay A % activity?
Response: +++ (+++ is >60%)

---

SYSTEM_UNDER_TEST: CFTR-mediated chloride transport (Homo sapiens, UniProt P13569)
ASSAY_DETAILS: Corrector Assay A - membrane potential dye assay (enteroid cells)
CONDITION_PARAMETERS: read-out: Corrector Assay A EC50; human intestinal enteroid cells, 18-24 h incubation; acute 10 μM forskolin + 300 nM ivacaftor
pEC50: −log10 of the molar value.
ENDPOINT_LABEL: pEC50

[[record]]
compound = "CC(C)(C)c1ccc2c(n1)N1C[C@@H](CCC(C3CCNCC3)Nc3cccc(n3)S(=O)(=O)NC2=O)CC1(C)C (single isomer, unassigned) [Compound 249]"
endpoint_label = "pEC50"
experimental_value = "< 5.52"

[[record]]
compound = "CC(C)(C)c1ccc2c(n1)N1C[C@@H](CC[C@@H](c3cc(-c4cn[nH]c4)ccn3)Nc3cccc(n3)S(=O)(=O)NC2=O)CC1(C)C (single isomer, unassigned) [Compound 69]"
endpoint_label = "pEC50"
experimental_value = "> 6.00"

[[record]]
compound = "CN1CCN(c2ccc(C3CC[C@@H]4CN(c5nc(C(C)(C)C)ccc5C(=O)NS(=O)(=O)c5cccc(n5)N3)C(C)(C)C4)nc2)CC1 (stereo partly drawn) [Compound 201]"
endpoint_label = "pEC50"
experimental_value = "> 6.00"

[[record]]
compound = "CC1(C)C[C@@H]2CC[C@H](c3ccccn3)Nc3cccc(n3)S(=O)(=O)NC(=O)c3ccc(N4CCN(CC5CC5)C4=O)nc3N1C2 [Compound 331]"
endpoint_label = "pEC50"
experimental_value = "> 6.00"


Query: Item under review: CC(C)COc1cc(F)cc(-c2ccc3c(n2)N2C[C@@H](CCC(c4ccccn4)Nc4cccc(n4)S(=O)(=O)NC3=O)CC2(C)C)c1 (single isomer, unassigned) [Compound 351] . Reported pEC50?
Response: > 6.00

Query: Note, next up: CC(C)(C)c1ccc2c(n1)N1C[C@@H](CC[C@@H](c3cccc(C#N)n3)Nc3cccc(n3)S(=O)(=O)NC2=O)CC1(C)C [Compound 210]
Response: > 6.00

---

SYSTEM_UNDER_TEST: CFTR-mediated chloride transport (Homo sapiens)
ASSAY_DETAILS: Corrector Assay A - membrane potential dye assay (enteroid cells)
CONDITION_PARAMETERS: % of chloride transport of triple combination control (1 μM (14S)-dispiro macrocycle + 3 μM tezacaftor + 300 nM ivacaftor)
ENDPOINT_LABEL: Corrector Assay A % activity

Reference set, count: 8
[[record]]
compound = "CC1(C)C[C@@H]2CC[C@H](c3ccccn3)Nc3cccc(n3)S(=O)(=O)NC(=O)c3ccc(C4CC4)nc3N1C2 [Compound 349]"
system_under_test = "CFTR-mediated chloride transport (Homo sapiens)"
experimental_value = "+++ (+++ is >60%)"

[[record]]
compound = "CC(C)(C)c1ccc2c(n1)N1C[C@@H](CCC(C(C)(C)C)Nc3cccc(n3)S(=O)(=O)NC2=O)CC1(C)C (single isomer, unassigned) [Compound 244]"
system_under_test = "CFTR-mediated chloride transport (Homo sapiens)"
experimental_value = "+++ (+++ is >60%)"

[[record]]
compound = "CC(C)(C)c1ccc2c(n1)N1C[C@@H](CCC(C)(c3ccccn3)Nc3cccc(n3)S(=O)(=O)NC2=O)CC1(C)C (single isomer, unassigned) [Compound 44]"
system_under_test = "CFTR-mediated chloride transport (Homo sapiens)"
experimental_value = "++ (++ is 30-60%)"

[[record]]
compound = "Cn1cc(C2CC[C@@H]3CN(c4nc(C(C)(C)C)ccc4C(=O)NS(=O)(=O)c4cccc(n4)N2)C(C)(C)C3)cn1 (single isomer, unassigned) [Compound 280]"
system_under_test = "CFTR-mediated chloride transport (Homo sapiens)"
experimental_value = "+++ (+++ is >60%)"

[[record]]
compound = "CN1c2cccc(n2)S(=O)(=O)NC(=O)c2ccc(C(C)(C)C)nc2N2C[C@@H](CC[C@H]1c1ccccc1)CC2(C)C [Compound 262]"
system_under_test = "CFTR-mediated chloride transport (Homo sapiens)"
experimental_value = "+++ (+++ is >60%)"

[[record]]
compound = "CC(C)(C)c1ccc2c(n1)N1CC(CCC(C(C)(C)O)Nc3cccc(n3)S(=O)(=O)NC2=O)CC1(C)C (centres unmarked) [Compound 13]"
system_under_test = "CFTR-mediated chloride transport (Homo sapiens)"
experimental_value = "++ (++ is 30-60%)"

[[record]]
compound = "CC(C)(C)c1ccc2c(n1)N1C[C@@H](CCC(C3CCNCC3)Nc3cccc(n3)S(=O)(=O)NC2=O)CC1(C)C (single isomer, unassigned) [Compound 248]"
system_under_test = "CFTR-mediated chloride transport (Homo sapiens)"
experimental_value = "++ (++ is 30-60%)"

[[record]]
compound = "CC1(C)C[C@@H]2CC[C@H](c3ccccn3)Nc3cccc(n3)S(=O)(=O)NC(=O)c3ccc(-c4cccc(OCC5CC5)n4)nc3N1C2 [Compound 314]"
system_under_test = "CFTR-mediated chloride transport (Homo sapiens)"
experimental_value = "+++ (+++ is >60%)"


Query: Value wanted: Corrector Assay A % activity (CFTR-mediated chloride transport (Homo sapiens)) of entry CC(C)(C)c1ccc2c(n1)N1C[C@@H](CCC(c3ccc(C4CC(F)(F)C4)cn3)Nc3cccc(n3)S(=O)(=O)NC2=O)CC1(C)C (some centres unmarked) [Compound 21]
Response: +++ (+++ is >60%)

Query: Note, next up: CC(C)(C)c1ccc2c(n1)N1C[C@@H](CCC(c3ccc(-c4cn[nH]c4)cn3)Nc3cccc(n3)S(=O)(=O)NC2=O)CC1(C)C (some centres unmarked) [Compound 135]
Response: ++ (++ is 30-60%)

Query: Note, next up: CC1(C)CC2CCC(c3ccccn3)Nc3cccc(n3)S(=O)(=O)NC(=O)c3ccc(-n4ccc(OCCC5C6(CC6)C56CC6)n4)nc3N1C2 (centres unmarked) [Compound 356]
Response: +++ (+++ is >60%)

Query: Note, next up: CC(C)(C)c1ccnc(C2CC[C@@H]3CN(c4nc(C(C)(C)C)ccc4C(=O)NS(=O)(=O)c4cccc(n4)N2)C(C)(C)C3)c1 (single isomer, unassigned) [Compound 76]
Response: ++ (++ is 30-60%)

---

Reported EC50 values for the following compounds.
SYSTEM_UNDER_TEST: CFTR-mediated chloride transport (Homo sapiens)
ASSAY_DETAILS: Corrector Assay A - membrane potential dye assay (enteroid cells)
CONDITION_PARAMETERS: read-out: Corrector Assay A EC50; human intestinal enteroid cells, 18-24 h incubation; acute 10 μM forskolin + 300 nM ivacaftor

Reference set, count: 6
[[record]]
compound = "CC(C)(C)c1ccc2c(n1)N1C[C@@H](CCC(C3CCNCC3)Nc3cccc(n3)S(=O)(=O)NC2=O)CC1(C)C (single isomer, unassigned) [Compound 248]"
endpoint_label = "EC50"
experimental_value = "> 3000 nM"

[[record]]
compound = "CN(C)C(=O)CCCC1CC[C@@H]2CN(c3nc(C(C)(C)C)ccc3C(=O)NS(=O)(=O)c3cccc(n3)N1)C(C)(C)C2 (stereo partly drawn)"
endpoint_label = "EC50"
experimental_value = "< 1000 nM"

[[record]]
compound = "CC(C)(C)c1ccc2c(n1)N1C[C@@H](CCC(c3cccnc3)Nc3cccc(n3)S(=O)(=O)NC2=O)CC1(C)C (single isomer, unassigned) [Compound 282]"
endpoint_label = "EC50"
experimental_value = "< 1000 nM"

[[record]]
compound = "CC(C)(C)c1ccc2c(n1)N1C[C@@H](CC[C@@H](C3CCOCC3)Nc3cccc(n3)S(=O)(=O)NC2=O)CC1(C)C (single isomer, unassigned) [Compound 268]"
endpoint_label = "EC50"
experimental_value = "< 1000 nM"

[[record]]
compound = "CC(C)(C)c1ccc2c(n1)N1C[C@@H](CC[C@@H](C3CCN(CCC(F)(F)F)CC3)Nc3cccc(n3)S(=O)(=O)NC2=O)CC1(C)C (single isomer, unassigned)"
endpoint_label = "EC50"
experimental_value = "> 3000 nM"

[[record]]
compound = "CC(=O)NCc1ccc(C2CC[C@@H]3CN(c4nc(C(C)(C)C)ccc4C(=O)NS(=O)(=O)c4cccc(n4)N2)C(C)(C)C3)nc1 (stereo partly drawn) [Compound 71]"
endpoint_label = "EC50"
experimental_value = "< 1000 nM"


Query: Item under review: CC(C)(C)c1ccc2c(n1)N1C[C@@H](CCC(c3ccc(N4CCCC4)cn3)Nc3cccc(n3)S(=O)(=O)NC2=O)CC1(C)C (stereo partly drawn) [Compound 163] . Reported EC50?
Response: < 1000 nM

Query: Note, next up: CC(C)(C)c1ccc2c(n1)N1C[C@@H](CC[C@@H](C3CCOCC3)Nc3cccc(n3)S(=O)(=O)NC2=O)CC1(C)C (single isomer, unassigned) [Compound 269]
Response: < 1000 nM

Query: Note, next up: CC(C)(C)c1ccc2c(n1)N1C[C@@H](CCC(c3ccc(CN)cn3)Nc3cccc(n3)S(=O)(=O)NC2=O)CC1(C)C (single isomer, unassigned) [Compound 197]
Response: < 1000 nM

Query: Note, next up: COC[C@@H]1CC[C@@H]2CN(c3nc(C(C)(C)C)ccc3C(=O)NS(=O)(=O)c3cccc(n3)N1)C(C)(C)C2 (single isomer, unassigned) [Compound 277]
Response: < 1000 nM

Query: Note, next up: CN(C)CCNc1cccc([C@@H]2CC[C@@H]3CN(c4nc(C(C)(C)C)ccc4C(=O)NS(=O)(=O)c4cccc(n4)N2)C(C)(C)C3)n1
Response: < 1000 nM

Query: Note, next up: CC(C)(C)c1ccc2c(n1)N1C[C@@H](CCCn3ccc4ccc(cc43)S(=O)(=O)NC2=O)CC1(C)C
Response: < 1000 nM
